Collected z-score values appear next to each entry.
# METHOD DESCRIPTION: hepatitis C replication reporter changes, two-sided – Huh7 cells, luciferase reporter, HCV replication inhibitor project, primary screen (AID 1109);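 also: huh7 hepatoma cells harbouring a luciferase neomycin HCV replicon reporter; luciferase luminescence as measure of HCV replicon replication; test concentration not given here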
# SETTINGS: Huh7 HCV replicon luciferase reporter, 48 h; higher = more signal
API doc: respond with a numeric literal and nothing else, no unit.

Cc1ccc(N2C(=O)c3ccccc3[C@@H](C(=O)NCCCN(C)C)[C@@H]2c2ccc(CO)cc2)nc1 = 0.234
CCN(CC)c1ccc(N2CC=CC34O[C@@H]5/C=C\CCCOC(=O)C5[C@H]3C(=O)N(C(C)CO)[C@@H]4C2=O)cc1 (stereo partly specified) = -0.261
COC(=O)[C@@]1(Cc2ccc(OC)cc2)[C@H]2c3cc(C(=O)N4CCCC4)n(CCc4c[nH]c5ccc(OC)cc45)c3C[C@H]2CN1C(=O)c1ccccc1 = -1.93
COC(=O)C(CC#Cc1ccc2c(c1)[C@]1(C(=O)N2)[C@H](c2ccc(O)cc2)N2[C@H](c3ccccc3)[C@H](c3ccccc3)OC(=O)[C@H]2[C@@H]1C(=O)NC[C@H](O)c1ccccc1)C(=O)OC = -1.04
COc1cccc(C)c1NC(=O)O[C@H]1[C@H](OC(=O)Nc2ccc3c(c2)OCO3)[C@@H](OC(=O)Nc2ccc3c(c2)OCO3)[C@@H](OC)O[C@@H]1CO = 0.658

Then this compound:
## Input Give the reported z-score for this compound. `NC(=O)NCC#Cc1ccc2c(c1)[C@]1(C(=O)N2)[C@H](c2ccccc2OCCO)N2[C@H](c3ccccc3)[C@H](c3ccccc3)OC(=O)[C@H]2[C@@H]1C(=O)O`
## Output -0.331

The reported measurements were obtained from PubChem BioAssay.
